# maps each entry to its GI50
Tested on: Hs-578T
Assay: NCI tumour cell line growth inhibition, 48 h
The source made the active and inactive calls. Rule as the data show it: active = GI50 up to about 1.1 µM and inactive = higher.

compound	testTarget	GI50
CCCCCCN1C(=O)CC(=O)N(CCCCCC)S1(=O)=O	Hs-578T	22 µM (inactive)
O=C1/C(=C/c2ccc(O)c([N+](=O)[O-])c2)CCC/C1=C\c1ccc(O)c([N+](=O)[O-])c1	Hs-578T	4.48 µM (inactive)
COc1c(OC)c(O)c2c(=O)c(OC)c(-c3ccc4c(c3)OCO4)oc2c1O	Hs-578T	> 100 µM (inactive)
NCCSCCC(=O)O	Hs-578T	> 100 µM (inactive)
CC(C)(C)OC(=O)N1C(=O)OC[C@@H]2C=C[C@@H]21	Hs-578T	> 100 µM (inactive)
CCC1=C(C=O)c2cc3[nH]c(cc4nc(c5c6[nH]c(cc1n2)c(C)c6C(=O)C5C(=O)OC)C(CCC(=O)OC)C4C)c(C)c3CC (centres undefined)	Hs-578T	88.1 µM (inactive)
CN1c2ccccc2S(=O)(=O)n2c(COc3ccc(Cl)cc3)nnc21	Hs-578T	43.4 µM (inactive)
CC12OC3(C(O)C1O)C(C(=O)O[C@H]3CO[Si](C)(C)C(C)(C)C)C2S(=O)(=O)c1ccccc1 (some centres undefined)	Hs-578T	30 µM (inactive)
O=C1C(Cl)C(c2cccc(Cl)c2)N1c1ccc(-n2c(S)nc3ccccc3c2=O)cc1 (centres undefined)	Hs-578T	20.2 µM (inactive)

###

Tested on: NCI-H522
Experiment: NCI tumour cell line growth inhibition, 48 h
Activity calls are given as the source filed them. Rule as the data show it: active = GI50 up to about 1.1 µM and inactive = higher. Peptide text beside a SMILES is read from it. * marks the point of attachment. Boc = CC(C)(C)OC(=O)*
Possible outcomes: t for active, f for inactive

compound	group
N#CC(N)(C(=O)C(=O)NCCCNC(=O)C(=O)C(N)(C#N)c1ccc(Cl)cc1)c1ccc(Cl)cc1 (centres undefined)	f
N/C(=N\c1ccc(Cl)cc1)NS(=O)(=O)c1ccc(-c2ncccc2C(F)(F)F)s1	f
CC1Oc2c(c(=O)oc3ccccc23)[C@@]1(C)CC1C[C@H](C)C(=O)O1 (some centres undefined)	f
CCNC(=O)/C=C/CCC#Cc1ccc(-c2ccc(-c3cccs3)s2)s1	f
Cc1ccc([N+](=O)[O-])cc1NC(=O)c1cccc([N+](=O)[O-])c1O	f
Cc1cccc(C2SCc3nc4ccccc4n32)c1 (centres undefined)	f
O=c1ccc(=O)n(-c2ccccc2)[nH]1	f
COC(=O)C(C(=O)C(=O)Nc1ccccc1C#N)c1nc2ccc([N+](=O)[O-])cc2nc1O (centres undefined)	f
CNC(=O)OC1/C(C)=C\C(C)C(O)C(OC)CC(C)CC2=C(OC)C(=O)C=C(C2=O)N(C)C(=O)/C(C)=C/C=C\C1OC (centres undefined)	t
CC1=C(C(=O)Nc2cc(F)c(F)cc2F)C(c2ccc(N(C)C)cc2)C(C(=O)Nc2cc(F)c(F)cc2F)=C(C)N1	f
CN1CCN(CCCBr)CC1	f
C=C1CC2CC(=O)C(O)C(C1)C2 (centres undefined)	f
CC1=C2C(=O)C3[C@@H](CCC4=CC(=O)CC[C@@]43C)C2CC[C@]12O[C@@H]1C[C@H](C)CN[C@H]1[C@H]2C (some centres undefined)	f
CCOC(=O)C(NC(=O)OCc1ccccc1)C(=O)O (centres undefined)	f
COC1C(O)CC(OC2CC(Oc3cc4cc5c(c(O)c4c(O)c3C)C(=O)[C@@H](OC3CC(OC4CC(OC6CC(C)(O)C(OC(C)=O)C(C)O6)C(O)C(C)O4)C(O)C(C)O3)[C@H]([C@H](OC)C(=O)[C@@H](O)[C@@H](C)O)C5)OC(C)C2OC(C)=O)OC1C (some centres undefined)	t
CCOC(C[Se]CC(OCC)OCC)OCC	f
CC(C)(C)OC(=O)N1C(=O)OC[C@@H]2C=C[C@@H]21	f
CSCCC(NC(=O)Cc1ccc(C(=O)c2ccccc2)cc1)C(=O)N1CCN(CCCCN2c3ccccc3Sc3cc(N=[N+]=[N-])ccc32)CC1 (centres undefined)	f
CN1CCCN(C)C1c1cc([N+](=O)[O-])ccc1O	f
COc1ccc(C(OCC2OC(n3cc(C)c(=O)[nH]c3=O)CC2n2cc(Cn3cc(Cl)c(=O)[nH]c3=O)nn2)(c2ccccc2)c2ccccc2)cc1 (centres undefined)	f
C/C(CC(O)(C(F)(F)Cl)C(F)(F)Cl)=N\Nc1ccccc1	f
O=C(O)CCC(NC(=O)c1ccc(OCc2nc3cc(C(F)(F)F)ccc3nc2-c2ccccc2)cc1)C(=O)O (centres undefined)	f
COC(=O)CC(=O)NCC1=CCC(=O)CC1	f
CCOC(C)OC1CC(n2cc(C)c(=O)[nH]c2=O)OC1CO (centres undefined)	f
CCc1cc2c(cc1CCCC(=O)O)CC1(Cc3ccc(C(=O)O)cc3C1)C2 (centres undefined)	f
COC(=O)CCNC(=O)OCc1ccccc1	f
COc1cccc2c1C(=O)OC2c1cccc2ccccc12 (centres undefined)	f
C[N+]1=c2c3cccc4cccc(c(=O)n2CC1)c43	f
O=C(O)C(Br)C(Br)c1ccccc1[N+](=O)[O-] (centres undefined)	f
NS(=O)(=O)c1ccc(NC(=O)COC(=O)c2cccc3c(=O)c4ccccc4[nH]c23)cc1	f
CC(=O)Nc1cc(C(=O)Nc2cc(C(=O)N3CC(CCl)c4c3cc(N)c3ccccc43)nn2C)nn1C (centres undefined)	t
CCOCC(NC(=O)C(CC(C)C)NC(=O)OC(C)(C)C)C(N)=O (stereo not drawn) (Boc-Leu-Ser(Et)-NH2; configuration not given here)	f
COc1cccc(N2C(=O)C3c4[nH]c5ccc(C)cc5c4C4CCC(C(C)(C)C)CC4C3C2=O)c1 (centres undefined)	f
CC(C(=O)Oc1ccc2ccccc2c1-c1c(O)ccc2ccccc12)c1ccccc1 (centres undefined)	f
O=C(O)C1CCCN1C(=O)c1cc(Cl)ccn1 (centres undefined)	f
NC(=O)NC(=O)C1CCC(=O)N1S(=O)(=O)c1ccc(Cl)cc1 (centres undefined)	f
Cc1ccc(Cc2cc(N3CCN(c4cccc(Cl)c4)CC3)nnc2C)cc1	f
Nc1nc(N)c2ncn(Cc3c(Cl)cccc3Cl)c2n1	f
CCOc1cc(CC[N+](C)(C)C)c2c(ccc3ccc(OC)c(OC)c32)c1OC	f
